Some compounds, each annotated with its measured Formed peptide.
# System: microbial cells of Empedobacter brevis strain FERM BP-8113
# assay_details: Production of peptide using microbial cells
# Format: cell-based
# setup_conditions: 1 mL cell suspension (100 g/L) + 1 mL buffer with 200 mM carboxy component (hydrochloride) and 400 mM amino acid; borate buffer pH 9.0, 10 mM EDTA; 18° C., 2 hours
Where a SMILES comes first, the peptide text is derived from it.
measurement_label: Formed peptide (mM)

compound="NCC(=O)N[C@@H](Cc1cnc[nH]1)C(=O)O [Gly-L-His] (H-Gly-His-OH)" system="microbial cells of Empedobacter brevis strain FERM BP-8113" observed_measurement=22.1
compound="CSCC[C@H](N)C(=O)N[C@@H](Cc1ccccc1)C(=O)O [L-Met-L-Phe] (H-Met-Phe-OH)" system="microbial cells of Empedobacter brevis strain FERM BP-8113" observed_measurement=28.5
compound=C[C@H](N)C(=O)N[C@@H](Cc1ccccc1)C(=O)O system="microbial cells of Empedobacter brevis strain FERM BP-8113" observed_measurement=62.4
compound="CSCC[C@H](NC(=O)[C@H](C)N)C(=O)O [L-Ala-L-Met] (H-Ala-Met-OH)" system="microbial cells of Empedobacter brevis strain FERM BP-8113" observed_measurement=68.3
compound="C[C@H](N)C(=O)N[C@@H](Cc1cnc[nH]1)C(=O)O [L-Ala-L-His] (H-Ala-His-OH)" system="microbial cells of Empedobacter brevis strain FERM BP-8113" observed_measurement=52.1
compound="CC(C)C[C@H](NC(=O)[C@@H](N)[C@@H](C)O)C(=O)O [L-Thr-L-Leu] (H-Thr-Leu-OH)" system="microbial cells of Empedobacter brevis strain FERM BP-8113" observed_measurement=23.0
compound="CC[C@H](C)[C@H](N)C(=O)N[C@@H](CCSC)C(=O)O [L-Ile-L-Met] (H-Ile-Met-OH)" system="microbial cells of Empedobacter brevis strain FERM BP-8113" observed_measurement=8.3
compound="C[C@H](N)C(=O)N[C@@H](CO)C(=O)O [L-Ala-L-Ser] (H-Ala-Ser-OH)" system="microbial cells of Empedobacter brevis strain FERM BP-8113" observed_measurement=51.3
